Test system: Mus musculus
Assay: Dose normalized AUC in NMRI mouse at 10 mg/kg, iv by LC-MS/MS analysis
Type: ADME, organism-based
Settings: in vivo
readout: AUC/dose (ng·h/mL)
Provide the reading as a plain figure in ng·h/mL.

The compound listed as COc1ccc2ncc(F)c(CC(N)[C@@H]3CC[C@@H](NCc4ccc5c(n4)NC(=O)CO5)CO3)c2n1 (mixture of isomers) has a reported AUC/dose of 260

* * *

Assay: Terminal half-life in NMRI mouse at 120 mg/kg, sc by LC-MS/MS analysis
Assay type: ADME, organism-based
Conditions: in vivo, read-out: beta t1/2 (converted)
readout: half-life (h)
Provide only the numeric value, understood in h.

Entry `COc1ccc2ccc(=O)n(C[C@H](N)[C@@H]3CC[C@@H](NCc4ccc5c(n4)NC(=O)CO5)CO3)c2n1` — recorded half-life = 5.2

* * *

Assay: Inhibition of wild-type Acinetobacter baumannii DNA topoisomerase-4 mediated supercoiled pBR322 DNA relaxation by ethidium bromide based agarose gel electrophoresis
Each entry below carries its reported IC50.
Only the number, expressed in nM, is required.

Here's what some known entries look like.
compound | value
COc1cnc2ccc(=O)n(C[C@H](N)[C@@H]3CC[C@@H](NCc4ccc5c(n4)NC(=O)CO5)CO3)c2c1 | 125
COc1ccc2ncc(F)c(C[C@@H](N)[C@@H]3CC[C@@H](NCc4ccc5c(n4)NC(=O)CO5)CO3)c2n1 | 125
COc1cnc2ccc(=O)n(C[C@H](N)[C@@H]3CC[C@@H](NCc4ccc5c(n4)NC(=O)CO5)CO3)c2n1 | 30

The reported value for `COc1ccc2ccc(=O)n(C[C@H](O)[C@@H]3CC[C@@H](NCc4cc5c(nn4)OCCO5)CO3)c2n1` in terms of IC50 is 8000

Given item `COc1ccc2ncc(F)c(C[C@H](N)[C@@H]3CC[C@@H](NCc4ccc5c(n4)NC(=O)CO5)CO3)c2n1` , the value recorded as its IC50 is 125

Noted for `O=C(O)c1cn(C2CC2)c2cc(N3CCNCC3)c(F)cc2c1=O` : its IC50 reads 32000
